- Target of assay: Tyrosyl-tRNA synthetase, putative (Trypanosoma cruzi (strain CL Brener)) (UniProt Q4DSP6)
- Sequence (Q4DSP6 as listed by the source): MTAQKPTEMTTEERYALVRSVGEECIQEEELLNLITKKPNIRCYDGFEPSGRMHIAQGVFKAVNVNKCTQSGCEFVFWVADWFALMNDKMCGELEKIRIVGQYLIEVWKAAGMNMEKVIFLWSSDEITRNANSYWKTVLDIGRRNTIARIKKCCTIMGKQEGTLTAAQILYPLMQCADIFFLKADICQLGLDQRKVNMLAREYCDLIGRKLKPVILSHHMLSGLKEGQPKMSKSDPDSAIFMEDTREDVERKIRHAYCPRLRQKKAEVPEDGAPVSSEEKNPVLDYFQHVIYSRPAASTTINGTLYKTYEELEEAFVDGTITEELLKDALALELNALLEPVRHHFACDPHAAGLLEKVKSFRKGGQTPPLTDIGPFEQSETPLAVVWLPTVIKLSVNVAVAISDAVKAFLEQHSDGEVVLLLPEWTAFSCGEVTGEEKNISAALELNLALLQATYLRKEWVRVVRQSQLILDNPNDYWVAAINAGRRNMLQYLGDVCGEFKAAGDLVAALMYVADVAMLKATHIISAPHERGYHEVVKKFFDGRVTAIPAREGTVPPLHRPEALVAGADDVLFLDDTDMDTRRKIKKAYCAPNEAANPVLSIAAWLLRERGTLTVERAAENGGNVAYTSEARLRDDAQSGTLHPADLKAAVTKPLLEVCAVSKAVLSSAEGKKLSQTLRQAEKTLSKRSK
- Assay summary: Trypanosoma cruzi tyrosyl tRNA synthetase (TcYRS) SOP
- Type: functional
- Parameters: scale not given: direction of the effect not stated beside the values
- Condition info: 30 µM
Recorded metric: Percent Effect (%)

1. c1cnn(CC2CN(c3ncnc4ccsc34)CCO2)c1 (configuration not stated) :: 11
2. CCCn1ncc(CN2C[C@@H]3CCCN3C[C@@H]2CCSC)c1C :: 6.49
3. O=C(CCC1CCCC1)NCCn1nc(C2CCNC2)c2nccnc21 (configuration not stated) :: -3.9
4. c1ccc2oc(NC3CCCN(Cc4noc(C5CC5)n4)C3)nc2c1 (configuration not stated) :: 4.88
5. C[C@H](O)CNC(=O)c1cnc(-c2ccccc2)nc1O :: 17.1
6. CNC(=O)CC1CCN(Cc2nc(-c3cccc(Cl)c3)oc2C)CC1 :: 9.76
7. c1ccc(C[C@H]2[C@H](N3CCOCC3)CCN2Cc2cccnc2)cc1 :: 12.5
8. Cc1cnn(CC2CCCN2Cc2cc(=O)n3cccc(C)c3n2)c1 (configuration not stated) :: 25.9
9. O=C(CCN1CCCC1=O)NCc1cccnc1Oc1ccccc1 :: 6.17
10. Cc1cnn(CC2CN(CCc3ccncc3)CCO2)c1 (configuration not stated) :: 5
11. CCN(CC)CCNC(=O)c1nn(CC)cc1Cl :: 10.3
12. N#Cc1ncn(CCC(=O)Nc2c(Cl)cccc2Cl)n1 :: 21

###

Catalogue of Percent Effect values
- Target of assay: Tyrosyl-tRNA synthetase, putative (Trypanosoma cruzi (strain CL Brener))
- Assay summary: Trypanosoma cruzi tyrosyl tRNA synthetase (TcYRS) _High Tyrosine SOP; note: in the data most compounds retested in dose-response had high values
- Assay type: functional
- Design: scale not given: direction of the effect not stated beside the values
- Condition info: 30 µM
Recorded metric: Percent Effect (%)

1) COc1ncccc1CN1CCn2c(Cn3cncn3)cnc2C1 :: 0
2) O=C(NCCc1c[nH]cn1)c1ccc2c(c1)C(=O)N(C1CC1)C2=O :: 6.35
3) O=C(Cn1ccnc1)N1C[C@@H]2CC[C@H](Oc3ccccc3Cl)[C@@H]2C1 :: 0
4) CCn1cc(CN2CCCn3nc(CCC(=O)NCCO)cc3C2)cn1 :: 4.3
5) O=C1CC(c2ccncc2)c2c(c(C(=O)O)cn2-c2ccc(F)cc2)N1 (stereo not drawn) :: 8.47
6) O=C1CC2(CCN(S(=O)(=O)C3CC3)C2)CN1c1cncnc1 (stereo not drawn) :: 6.25
7) COCCN1C[C@@H](C)[C@@]2(COCCN(C(=O)Cc3ccccc3)C2)C1 :: 5.21
8) CCN(CCNC(=O)c1ccccc1Br)C1CC1 :: 1.04
9) Cc1cnc2c(S(=O)(=O)NCC3CCN(C4CC4)C3)cccc2c1 (stereo not drawn) :: 11.3
10) CCc1nnc2n1CCN(C(=O)c1ccc3[nH]cnc3c1)C2 :: 3.16
11) Cc1cccnc1NC(=O)NCc1ccc(N2CCNC(=O)C2)cc1 :: 41.8
12) O=C(NCc1csc(Br)c1)c1ccncc1 :: -1.04
13) O=C(NCCC(=O)N1CCCc2ccccc21)c1c(O)cc(F)cc1F :: -0.952
14) CN(C)CC1CN(C(=O)NCc2ccccc2)Cc2nccn2C1 (stereo not drawn) :: 3.12
15) CC(C)CN1CCC(C(=O)Nc2cc(C(F)(F)F)c[nH]c2=O)CC1 :: 5.83
16) CCCc1noc(CCC(=O)N2CCCC2c2ccsc2)n1 (stereo not drawn) :: -2.46
17) CCC(CO)NC(=O)c1ccc2ccc(N(C)CC3CC3)n2c1 (stereo not drawn) :: 12.6
18) COc1ccc(CN2C[C@H]3CC[C@](O)(c4ccc(C)cn4)[C@H]3C2)c(F)c1 :: 5.38
19) COCCO[C@@H]1CCN(C(=O)c2ccc(C)o2)[C@@H]1Cc1cnn(C)c1 :: 0.99
20) Cc1ccc2c(c1)C1(CCNCC1)CN2C(=O)CN(C)C :: 5.41
21) CCC(CC)c1cc(CNC(=O)N2CCOC(C)C2)on1 (stereo not drawn) :: 3.23
22) CN(C)C(=O)CN1CCC2(CCN(Cc3nccs3)CC2)C1=O :: -12.5
23) Cc1nocc1C(=O)N1CCc2c(CN(C)C(C)C)n[nH]c2C1 :: 5.21

###

- Target of assay: Tyrosyl-tRNA synthetase, putative (Trypanosoma cruzi (strain CL Brener))
- Assay summary: Trypanosoma cruzi tyrosyl tRNA synthetase (TcYRS) SOP
- Format: functional
- Parameters: scale not given: direction of the effect not stated beside the values
- Condition info: 30 µM
Lab note: anything with Percent Effect below 10% is marked Criterion met; values at 10% or higher are marked Criterion not met.

1) O=C1OCCN1CCOc1nc(-c2ccccc2Cl)no1 :: Criterion not met
2) CCCNC(=O)Cn1nc(C(C)C)c2cnn(C(C)(C)C)c2c1=O :: Criterion not met
3) CN(Cc1cscn1)C1CCCN(Cc2noc(C3CC3)n2)C1 (stereo unspecified) :: Criterion not met
4) Nc1nc2c(c(=O)[nH]1)CCN(C(=O)c1cccc3nccnc13)C2 :: Criterion met
5) CCn1cc(CN2CCCN(C(=O)CCCn3cncn3)CC2)cn1 :: Criterion not met

###

# key: entry, value: Percent Effect
- Target of assay: Proteasome subunit beta (Trypanosoma cruzi) (UniProt O96673)
- Sequence (whole entry): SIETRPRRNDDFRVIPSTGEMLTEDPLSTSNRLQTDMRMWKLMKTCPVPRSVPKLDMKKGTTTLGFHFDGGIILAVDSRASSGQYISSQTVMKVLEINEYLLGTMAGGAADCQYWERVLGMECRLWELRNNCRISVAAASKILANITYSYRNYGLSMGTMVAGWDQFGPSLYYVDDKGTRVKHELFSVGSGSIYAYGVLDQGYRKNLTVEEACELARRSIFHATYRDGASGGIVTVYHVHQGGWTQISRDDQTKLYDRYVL
- Assay summary: Trypanosoma cruzi proteasome chymotrypsin-like activity (TcProtChymo) assay. Note: in the data most compounds retested in dose-response had high values.
- Format: functional
- Set-up: scale not given: direction of the effect not stated beside the values
- Condition info: 9.37 µM
Recorded metric: Percent Effect (%)

1. CN(C)C(=O)N1CCN(CCn2nc3ccccn3c2=O)CC1 :: 20.8
2. Cc1ccc(NC2CCN(C(=O)CCNS(C)(=O)=O)CC2)nn1 :: -5.21
3. CN(C)C(=O)CN1CCC2(CCN(Cc3nccs3)CC2)C1=O :: 12.5
4. CN(Cc1ncc(-c2ccccc2)o1)CC1CCCN1c1cccnn1 (stereo unspecified) :: 1.54
5. Cc1cc(C(=O)N2CCCC(n3ccnc3C)C2)c(C)s1 (stereo unspecified) :: 1.44
6. Cn1cnnc1C1CCCN(C(=O)Cc2ccc3c(c2)OCCO3)C1 (stereo unspecified) :: 13.7

###

- Target of assay: Protein translocase subunit SecA (Escherichia coli (strain K12)) (UniProt P10408)
- Sequence (P10408 whole entry): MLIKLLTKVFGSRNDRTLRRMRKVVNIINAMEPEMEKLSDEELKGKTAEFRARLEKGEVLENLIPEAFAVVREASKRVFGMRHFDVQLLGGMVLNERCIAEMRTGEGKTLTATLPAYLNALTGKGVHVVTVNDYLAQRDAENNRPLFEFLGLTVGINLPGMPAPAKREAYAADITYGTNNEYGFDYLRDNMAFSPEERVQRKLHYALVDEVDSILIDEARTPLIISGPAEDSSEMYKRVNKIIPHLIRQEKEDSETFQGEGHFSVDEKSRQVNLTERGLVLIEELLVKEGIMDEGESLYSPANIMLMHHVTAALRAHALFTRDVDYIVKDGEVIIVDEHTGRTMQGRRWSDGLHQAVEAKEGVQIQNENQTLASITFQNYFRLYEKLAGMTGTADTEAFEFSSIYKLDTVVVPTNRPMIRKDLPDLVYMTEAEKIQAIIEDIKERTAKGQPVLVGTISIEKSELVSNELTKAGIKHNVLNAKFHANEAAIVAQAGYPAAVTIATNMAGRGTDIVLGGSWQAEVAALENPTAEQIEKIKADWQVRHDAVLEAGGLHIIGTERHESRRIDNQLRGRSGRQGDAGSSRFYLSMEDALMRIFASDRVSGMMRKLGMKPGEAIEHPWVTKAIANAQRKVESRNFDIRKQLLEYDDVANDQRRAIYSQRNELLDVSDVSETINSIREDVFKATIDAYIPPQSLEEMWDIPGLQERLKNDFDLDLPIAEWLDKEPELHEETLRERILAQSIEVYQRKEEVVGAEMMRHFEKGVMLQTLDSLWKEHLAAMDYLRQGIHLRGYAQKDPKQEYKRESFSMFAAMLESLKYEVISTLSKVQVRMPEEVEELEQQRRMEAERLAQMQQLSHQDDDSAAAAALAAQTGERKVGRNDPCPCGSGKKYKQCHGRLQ
- Assay summary: Assay to Identify E. coli SecA ATPase Inhibitors
- Assay type: functional
- Design: scale not given: direction of the effect not stated beside the values
- Condition info: 30 µM
Entries with a potency or affinity are not part of this list.
Recorded metric: Percent Effect (%)

1. Cc1noc([C@H]2COC[C@H]3CN(C(=O)Cc4ccc(F)cc4)C[C@H]32)n1 :: -6.71
2. CNC(=O)CCCNCc1c(C(C)C)nn(C)c1N(C)C :: -1.38
3. COc1ccnc(N2CCN(C(=O)Cc3ccc(C)s3)CC2)n1 :: -2.28
4. CC(C)COC(C)C(=O)NCc1cc(F)cc(F)c1 (configuration not stated) :: -1.7
5. Cc1ncsc1C(=O)NC1CCN(CC(=O)N(C)C(C)(C)C#N)CC1 :: -9.21
6. CC(C)c1n[nH]c(C(=O)Nc2ccncc2)c1Br :: -1.59
7. CC(C)n1ncc2c1NC(=O)CSC2C(C)(C)C (configuration not stated) :: -4
8. CCCNC(=O)NC(=O)CN(CC(C)O)c1ccccc1 (configuration not stated) :: -3.79
9. CN(Cc1ccc(F)cc1)C(=O)NCc1nnc2n1CCCCC2 :: -8.45
10. Cn1ncc2c(=O)[nH]c(CN(Cc3cccc(F)c3)C3CC3)nc21 :: -4.78
11. Cc1noc([C@H]2C[C@@H]3CCN(CC4CC4)C[C@H]3O2)n1 :: -4.27
12. CCn1cnnc1C1CCN(C(=O)COc2ccccc2)CC1 :: -7.35

###

Listing of entries alongside the reported Percent Effect.
- Target of assay: Tyrosyl-tRNA synthetase, putative (Trypanosoma cruzi (strain CL Brener))
- Assay summary: Trypanosoma cruzi tyrosyl tRNA synthetase (TcYRS) SOP
- Type: functional
- Design: scale not given: direction of the effect not stated beside the values
- Condition info: 30 µM
Recorded metric: Percent Effect (%)

1. CCS(=O)(=O)N1CCC(c2cc3n(n2)[C@@H](C(F)(F)F)C[C@@H](C)N3)CC1 :: 6.49
2. CCOCCCn1c(NC(=O)c2scnc2C)nc2ccccc21 :: 21.9
3. Cc1cccc(CC(=O)NCCCOC(C)C)c1 :: 19.5
4. COc1c(CNCCNC(=O)c2ccco2)c(C)nn1C :: 11
5. COc1ccc(C)cc1CNCc1ccc(-n2nc(C)cc2C)nc1 :: 17.1
6. NC(=O)Nc1cccc(Oc2ccccn2)c1 :: 2.6
7. Cn1cccc1C(=O)N1CCN(CC2CC2)c2ncccc2C1 :: 10
8. Cc1cc(CNC(=O)NC(C)c2ccc(N3CCOCC3)cc2)no1 (configuration not stated) :: 8.64
9. CCc1nc(C(=O)N2CCCC2)nn1-c1ccccc1Cl :: 18.5
10. CC(=O)Nc1nc(C(=O)Nc2ccc(N3CCCCC3)nc2)cs1 :: 10.1
11. COC(=O)c1cccn1C1CCN(C(=O)c2cc(F)ccc2F)CC1 :: 14.6
12. CC(C)c1csc(C2CCCN(C(=O)c3ncccn3)C2)n1 (configuration not stated) :: -3.7
13. COc1ccc(-c2nccnc2C2CCN(C(C)=O)CC2)cc1 :: 9.09
14. CCNC(=O)Nc1ccc2c(ccn2CC(=O)N(CC)CC)c1 :: 17.1
15. O=C(COc1cccc2c1CCC2=O)NCCOc1ccccc1 :: 0
16. O=C(CN1CCCCCCC1=O)NCc1ccccn1 :: 11.1
17. CN(Cc1cnn(C)c1)C(=O)NC1CCN(Cc2ccccn2)CC1 :: 7.32
18. Cc1ccoc1C(=O)N1CC[C@H]2OCC[C@@]2(COCc2ccncc2)C1 :: 16.7
19. O=C(NC1CCCC1)NC1CCC(C(=O)N2CCSCC2)CC1 (configuration not stated) :: -1.24
20. CCC(=O)N1CCC(c2nnc(Cn3cncn3)n2C2CC2)CC1 :: 15.4
21. Cn1ccnc1SCc1nc(C(C)(C)NC(=O)OC(C)(C)C)no1 :: 16.1
22. Cn1c(CN2CCOC(c3nc(C(C)(C)C)n[nH]3)C2)nnc1C1CC1 (configuration not stated) :: 18.8
23. Cc1ccsc1C(=O)N1CC(C(=O)N2CCOCC2)C2(CCOCC2)C1 (configuration not stated) :: -8.97
24. O=C(CCc1nc2cccnc2[nH]1)Nc1cccnc1 :: 20.5
25. O=C(Cn1cc(C(=O)O)ccc1=O)Nc1ccc(Cl)cc1F :: 10.3
26. CCOC(=O)c1sc2ccsc2c1CNC(=O)CC :: 13.4
27. Cc1nn(C)c(Cl)c1C1CCCN1C(=O)c1cc(Cl)c[nH]1 (configuration not stated) :: 3.7
28. CC(=O)N1[C@H](Cn2cncn2)C[C@@H]2CN(S(C)(=O)=O)CC[C@@H]21 :: 16.1
29. CS(=O)(=O)CCC(=O)NC1(c2cccc(Br)c2)CC1 :: 12.2
30. CC(C)C(=O)N1CCN(C(=O)c2cc(C(C)C)on2)[C@H]2CS(=O)(=O)C[C@H]21 :: 7.69
31. COc1c(CNCc2ccc(C(=O)NC3CC3)cc2)c(C)nn1C :: 12.7
32. Cc1nc2c(c(NC3CC3)n1)CCN(C(=O)C(C)(C)O)CC2 :: 7.69
33. CC(=O)N(Cc1ncc(C(C)C)o1)C1CCN(CCn2cccn2)C1 (configuration not stated) :: 1.22
34. CCC(=O)N1CCc2[nH]cnc2C12CCN(C(=O)c1snnc1C)CC2 :: 13.6
35. COc1cccc(N2CCN(C(=O)C(O)c3cccc(Cl)c3)CC2=O)c1 (configuration not stated) :: 0
36. CC1CN(CC(=O)Nc2nncs2)CCN1c1nccs1 (configuration not stated) :: 18.3
37. Cc1cc(C)c(CNC(=O)NCC2CCCO2)c(=O)[nH]1 (configuration not stated) :: -2.44
38. CC(C)COCC1CN(Cc2ccc3c(c2)OCO3)Cc2ncn(C)c21 (configuration not stated) :: 3.66
39. CN(Cc1cccc(O)c1)CC1CCCN(CCc2ccc(Cl)cc2)C1 (configuration not stated) :: 11.1
40. CC(=O)N1CCCN(C(=O)c2cnc3n[nH]c(C)c3c2)CC1 :: 23.5
41. Cc1cnc(CNc2c(F)cccc2-n2cccn2)o1 :: 5.13
42. COC(=O)c1cc(OCC2CCC2)cc(C(=O)N[C@@H]2CNCC[C@H]2O)c1 :: 0
43. CN(C)C(=O)CS(=O)(=O)Cc1cc(Cl)c2c(c1)OCO2 :: 23.5
44. CC(C)Nc1nc(N2CCOCC2)nc2c1CN(CC(=O)N(C)C)CC2 :: -3.85
45. COCc1nc(CN2CCC3(CCCO3)CCC2=O)no1 (configuration not stated) :: 3.7
46. COc1cc(NC(=O)c2ccccc2F)c(C(=O)N(C)C)cc1OC :: 11.1
47. CCn1nc2c(cc1=O)CN(Cc1nc3ccccc3c(=O)[nH]1)CC2 :: 10
